System: SK-N-MC
Test: Inhibition of cellular iron uptake in human SK-N-MC cells assessed as iron uptake at 25 uM for 3 hrs at 37 degC relative to control
Format: functional
Parameters: scale not given: the % may be the effect or the level left
The compounds listed here are annotated with their Activity.

smiles.structure | Activity / %
CNC(=S)N/N=C(/c1ccc(OC)c(OC)c1)c1cccc(C)n1 | 14
C=CCNC(=S)N/N=C(/c1ccccc1)c1cccc(C)n1 | 14
Cc1cccc(/C(=N\NC(=S)Nc2ccccc2)c2ccccc2)n1 | 58
CNC(=S)N/N=C(/c1ccc(OC)cc1)c1cccc(C)n1 | 22
CNC(=S)N/N=C(/c1ccccc1)c1cccc(C)n1 | 14
COc1ccc(/C(=N/NC(N)=S)c2cccc(C)n2)cc1 | 14
C=CCNC(=S)N/N=C(/c1ccc(OC)cc1)c1cccc(C)n1 | 14
CCNC(=S)N/N=C(/c1ccc(OC)c(OC)c1)c1cccc(C)n1 | 14
C=CCNC(=S)N/N=C(/c1ccc(OC)c(OC)c1)c1cccc(C)n1 | 14
COc1ccc(/C(=N/NC(=S)Nc2ccccc2)c2cccc(C)n2)cc1 | 58
CN(C)C(=S)NN=C(c1ccccn1)c1ccccn1 | 5
COc1ccc(/C(=N/NC(=S)N(C)C)c2cccc(C)n2)cc1 | 14
CC(=O)N(O)CCCCCNC(=O)CCC(=O)N(O)CCCCCNC(=O)CCC(=O)N(O)CCCCCN | 80
COc1ccc(/C(=N/NC(N)=S)c2cccc(C)n2)cc1OC | 14

* * *

The molecules listed here are annotated with their pIC50.
Test system: SK-N-MC
Assay: Antiproliferative activity against human SK-N-MC cells measured after 72 hrs at 37 degC by MTT assay
Assay type: functional, cell-based
pIC50: −log10 of the molar value.
attribute.measured: pIC50

molecule | comparison.operator | val
CCNC(=S)N/N=C(/c1ccc(OC)cc1)c1cccc(C)n1 | < | 5.20
C=CCNC(=S)N/N=C(/c1ccc(OC)cc1)c1cccc(C)n1 | < | 5.20
CNC(=S)N/N=C(/c1ccc(OC)cc1)c1cccc(C)n1 | < | 5.20
COc1ccc(/C(=N/NC(N)=S)c2cccc(C)n2)cc1 | < | 5.20
Cc1cccc(/C(=N\NC(=S)N(C)C)c2ccccc2)n1 | = | 8.05
Cc1cccc(/C(=N\NC(N)=S)c2ccccc2)n1 | < | 5.20
Cc1cccc(/C(=N\NC(=S)Nc2ccccc2)c2ccccc2)n1 | = | 5.55
CCNC(=S)N/N=C(/c1ccccc1)c1cccc(C)n1 | = | 6.06
C=CCNC(=S)N/N=C(/c1ccccc1)c1cccc(C)n1 | < | 5.20
CC(=O)N(O)CCCCCNC(=O)CCC(=O)N(O)CCCCCNC(=O)CCC(=O)N(O)CCCCCN [DEFEROXAMINE] | = | 4.66
COc1ccc(/C(=N/NC(=S)N(C)C)c2cccc(C)n2)cc1 | = | 5.66
COc1ccc(/C(=N/NC(=S)Nc2ccccc2)c2cccc(C)n2)cc1 | = | 5.76
CNC(=S)N/N=C(/c1ccccc1)c1cccc(C)n1 | = | 5.27
COc1ccc(/C(=N/NC(=S)Nc2ccccc2)c2cccc(C)n2)cc1OC | = | 6.21
COc1ccc(/C(=N/NC(N)=S)c2cccc(C)n2)cc1OC | < | 5.20
C=CCNC(=S)N/N=C(/c1ccc(OC)c(OC)c1)c1cccc(C)n1 | < | 5.20
COc1ccc(/C(=N/NC(=S)N(C)C)c2cccc(C)n2)cc1OC | = | 5.61
CNC(=S)N/N=C(/c1ccc(OC)c(OC)c1)c1cccc(C)n1 | < | 5.20
CCNC(=S)N/N=C(/c1ccc(OC)c(OC)c1)c1cccc(C)n1 | < | 5.20

src = ChEMBL document CHEMBL2331246
